- test-method-notes: yeast display, Sf9 membrane polyspecificity reagent, FACS + sequencing; frameworks hold sequencing errors
assay-readout: polyreactivity (PSR sort gate)

INSERT INTO measurements (sequence_content, measurement) VALUES
  ('QVQLVESGGGLVQAGGSLRLSCAASGRIFYGNAMGWYRQPPGKERELFAGITRSSGTSTYYADSVKVRFTISRDNAKYTVYLQMNSMNPEDTAVYYCAAPPDSYYYYKVPVVPYDYWGQGTQVTVSS', 'low polyreactivity'),
  ('QVQLVESGGGLVQAGGSLRLSCAASGSTFGRNTMGWYRKAPGKERELVASITRSSTSTNYADSVKGRFTISRDNAKNTVYLQMNSLKPEDTAVYYCAARALRTDRSPVGSHEYWGQGTQVTVSS', 'low polyreactivity'),
  ('QVQLVESGGGLVQAGGSLRLSCAASGTISVFYAKGWYRQAPGKEREFVAAISWRGGRTYYADSVKARFTISRDNAKNTVYLQMNSLKPEDTAVYYCAKDIVRGRSSRYDYWGQGTQVTVSS', 'high polyreactivity'),
  ('QVQLVESGGGLVQAGGSLRLICAASGFTFGYYAMGWYRQAPGKEREFVARISWSGDSTYYADSVKGRFTISRDNAKNTVYLQMTSLKPEDTAVYYCAARFTRQMYYWGQGTQVTVSS', 'high polyreactivity'),
  ('QVQLVESGGGLVQAGVSLRLSCAASGSTFTYNAMGWYRQAPGKERELVAAISYGGGRTYYADSVKGRFTISRDNAKNTVYLLMNSLKPEDTAVYYCNRYRYSYVEFDYWGQGTQVTVSS', 'high polyreactivity'),
  ('QVQLVESGGGLVQAGGSLRLSCAASGLIFPTNAMGWYRQAPGKERELVAAISSVGSTYYADSVKGRFTISRDNAKNTVYLQMNSLKPEDTAVYYCAADWTLDPSYGYYADDYWGQGTQVTVSS', 'low polyreactivity'),
  ('QVQLVESGGGLVQAGGSLRLSCAASGRTIGFNGMGWYRQAPGKERELVAAITRSGGNTYADSVKGRFTISRDNAKNTVYLQMNSLKPEDTAVYYCATTYVGVTLTGPGDYWGQGTQVTVSS', 'low polyreactivity'),
  ('QVQLVESGGCLVQAGGSLRLSCAASGSTFIINAMGWYIQAPGKERVLVAANTSTGGTNYADSVKGRFTISRDNAKNTVYLQMNSLKPEATAVYYCAARYYQDGYDYWGQGTQGTVSS', 'high polyreactivity'),
  ('QVQLVESGGGLVQAGGSLRLSCAASGSTFAVNAMGWYRQAPGKERELVAAISDSDGSTFYADSVKGRFTISRDNAKNTVYLQMNSLKPEDTAVYYCAATVYRVFRYSYLYYYWGQGTQVTVSS', 'low polyreactivity'),
  ('QEQLHESGGGLVQAGGSLRLSCAASGTISYAGPIGWDRQAPGKAREFVAGIGVGSNTNYADSVKGRFTIIRDNAKNTVYLQMNSLKPEDTAVYYCAVGGYAPLGRPYWGQGTQVTVSS', 'low polyreactivity'),
  ('QVQLVESGGGLVQAGGSLRLICAASGSTFYTYAMGWYRQAPGKEREFVAAIRWRGGSTYYADSVKGRFTISRDNSKNTVFLQMNSLKPEDTAVYYCAAVSPGTVTNGKSRDYWGQGTQVTVSS', 'high polyreactivity'),
  ('QVQLVESGGGLVQAGGSLRLSCAASGRIFVGYYAMGWYRQAPGKERELVAAITIGGRTYYADSVKGRFTISRDNAKNTVYLQMNSLKPEDTAVYYCAASKYTRAYQEYGYWGQGTQVTVSS', 'high polyreactivity'),
  ('QVQLVESGGGLVQAGGSLRLTCAASGSIFRDNVMGWSRQAPGKERELVAAISKRGGSTYYADSVKGRFTISRDNAKNTVYLQMNSLKPEDTAVYYCAAPQGRSHYYRYDYWGQGTQVTVSS', 'high polyreactivity'),
  ('QVQLVESGGGLVQAGGSLRLSCAASGIIFFRNAMGWYRQAPGKERELVAAISSGGSTYYADSVKGRFTISRDNAKNTVYLQMNSLKPEDTAVYYCNKVVPLYYASYDYWGQVTQVTVSS', 'low polyreactivity'),
  ('QVQLVESGGGLVQAGGSLSLSCAASGRIFDYYAMVWYRQAPGKERDLVAAISTSGGSTYYADSVKGRFTISRDNAKNTVYLQMISLKPVDTAVYYCAKDITVTYPGLDYDYWGQGTQVSVSS', 'low polyreactivity'),
  ('QVQLVESGRGLVQAGVSLRLSCASSGSTFTLNVMGWYRKAPVKERELVAGFSKRGGNTYYADSVKGRFTISRDYAKNTVYLQMNRLKPEDTAVYFCAKRQGVGYGYYYLGQGTQVTVSS', 'high polyreactivity'),
  ('QVQLVESGGGLVQAGGSLRLSCAAYAMGWYRQAPGKERELVAAISSSGGSTYYADSVKGRFTISRDNAKNTVYLQMNSLKPEDTAVYYCARDPDTYFFPPTGYYTSGFDSWGQGTQVTVSS', 'low polyreactivity'),
  ('QVQLVESGGGLVQAGGSLRLSCAASGRIFYVYAMGWYRQAPGKERELVADITRDGNTNYADSVKGRFTISRDNAKNTVYLQMNSLKPEDTAVYYCAAGGYPGTTYYGYDYWGQGTQVTVSS', 'low polyreactivity'),
  ('QVQLVESGGGLVQAGGSLRLSCAASGITFPKYAMGWYRQAPGTERELVAAITKSGGSTYYADSVKGRFTISRDNAKNTVYLQMNSLKPEDTEVYYCAVVSRGITKYDYWGQGTQVTVSS', 'high polyreactivity'),
  ('QVQLVESGGGLVQAGGSLRLSCAASGRIFTRYAMGWYRQAPGKERELVAAITQRGGTTYYADSVKGRFTISRDNAKNTVYLQMNSLKPEDTAVDYCATRYRYYTERDYWGQGTQVTVSS', 'high polyreactivity'),
  ('QVQLVESGGGLVQAGGSLRLSCAASGNIFSIYAMGWYRQAPGKERELVARITRVGSTYADSVKGRFTISRDNAKNTVYLQMNSLNPEDTAVYYCAADKNTPHASLDDFNDYDYWGQGTQVTVSS', 'high polyreactivity');

----------
- test-method-notes: yeast display, Sf9 membrane polyspecificity reagent, FACS + sequencing; frameworks hold sequencing errors
assay-readout: polyreactivity (PSR sort gate)

INSERT INTO measurements (sequence_content, assay_readout, measurement) VALUES
  ('QVQLVESGGGLVQAGGSLRLSCAASGSIFFLYAMGWYRQAPGKEREFVAAITGTADSTYYADSVKGRFTISRDDAKNTVYLQMNSLKPEDTAVYYCATDYWSSVKLDDYWGQGTQVTVSS', 'polyreactivity (PSR sort gate)', 'low polyreactivity'),
  ('QVQLVESGGGLVQAGGSLRLTCAASGGIFSYNAMGWYRQAPGKERELVAAISDSSTRTYYADSVKGRFTISRDNAKNTVYLQIKSLKPEDTAVYYCAARHSRTRHTSDYWGQGTQVTVSS', 'polyreactivity (PSR sort gate)', 'high polyreactivity'),
  ('QVQLVESGGGLVQARGSLRLSCAASGSIFDFYAMGWYRQAPGKERELVAAISGSGGSTYYADSVKARFTISRDNAKNNGYLQMISLKPDDTAVYYCSYYYWGQGTQVTVSS', 'polyreactivity (PSR sort gate)', 'low polyreactivity'),
  ('QVQLVESGGGLVQAGGSLRLSCAASGSTFYHYAMGWYRQAPGKERELVAAISWSGGSTYYADSVKGRFTISRDNAKNTVYLQMNSLKPEDTAVYYCNKAGRSWFRTGLGYWGKGTQVTVSS', 'polyreactivity (PSR sort gate)', 'high polyreactivity'),
  ('QVQLVESGGGLVQAGGSLRLSCAASGRTFYSYAMGWYRQAPGKERELVAAISSGGTTYYADSVKGRFTISRDNAKNTVYLQMNSLKPEDTAVYYCATSRAWRYRSYYWGQGTQVTVSS', 'polyreactivity (PSR sort gate)', 'high polyreactivity'),
  ('QVQLVESGGGLVQAGGSLRLSCAASGFTFYLYAMGWYRQAPGKERELVAAITGRGTRTYYADSVKGRFTISRDNAKNTVYLQMNSLKPEDTAVYYCATGGANVDGDAYDYWGQGTQVTVSS', 'polyreactivity (PSR sort gate)', 'high polyreactivity'),
  ('QVQLVESGGGLVQAGGSLRLSCAASGSIFGRNVMGWYRQAPGKERELVAAISEGGGRTYYADSVKGRFTISRDNAKNTVYLQMNSLKPEDTAVYYCAAAYFSSGYKYYYWGQGTQVTVSS', 'polyreactivity (PSR sort gate)', 'high polyreactivity'),
  ('QVQLVESGGGLVQAGGSLRLSCAASGGIYGNYAMGWYRQAPGKERELVADITTGGSTYYADSVKGRFTISRDNAKNTVYLQMNSLKPEDTAVYYCNARSLFHRFSSYKYDYWGQGTQVTVST', 'polyreactivity (PSR sort gate)', 'high polyreactivity'),
  ('QVQLVESGGGLVQAGGSLRLSCAASGRIFAVYAMGWYRQAPGKERELVAAINWNDGSTYYADSVKGRFTISRDNAKNTVYLQMNSLKPEDTAVYYCAARALSRSVYGKSGYKYGYWGQGTQVTVSS', 'polyreactivity (PSR sort gate)', 'high polyreactivity'),
  ('QVQLVESGGGLVQAGGSLRLSCAASGSIFPVNVMGWYRQAPGKERELVADITSTGTYYADSVKGRFTISRDNAKNTVYLQMNSLKPEDTAVYYCAKAGGSWYRRYYYWGQGTQVTVSS', 'polyreactivity (PSR sort gate)', 'high polyreactivity'),
  ('QVQLVESGGRLVQAGGSLRLSCAASGLTFGSYAMGWYRQAPGKESELVAGISARAGRTYYADSVKGRFTISRDNAKNTVYLQMNSLKPEDTAVYYCAARVYSRYHTKGFSNYQYDYWGQGTQVTVSS', 'polyreactivity (PSR sort gate)', 'high polyreactivity'),
  ('QVQLVESGGGLVQAGGILRLSCAASGSIFGSYAMGWYRQAPGKERELVAGITYRGSSTYYADSVKGRFTISRDNAKNTVYLQMNSLKPEDTAVYYCAADPVFDEYDYWGQGTQVTVSS', 'polyreactivity (PSR sort gate)', 'low polyreactivity'),
  ('QVQLVESRRGLVQAGGSLRLSCASSGFTVCWYAMGLYRPAPGTERELVAAISSGGSTNYADSVKGRFTISRDNAKNTVYFQMNSLKPEDTAVYYCARRLWYSDRYSARWQYDYWGQGTQVTVSS', 'polyreactivity (PSR sort gate)', 'high polyreactivity'),
  ('QVQLVESGGGLVQAGGSLRLSCAASGSIFVYNAMGWYRQAPGKERELVAGITFIGGSTYYADPVKGRFTISRDNAKNTVYLQMNSLKPEDTAVYYCNADVAPGIFYGYDSWGQGTQVTVSS', 'polyreactivity (PSR sort gate)', 'low polyreactivity'),
  ('QVQLVESGGGLVQAGGSLRLSCAASGSILGYYAMGWYRPAPGKERELVAAISGRGGSTYYADSVKGRFTISRDNAKNTVYLQMNSLKPEDTAVYYCAVVWGSYYWGQGGGDYWGQGTQVTVSS', 'polyreactivity (PSR sort gate)', 'high polyreactivity'),
  ('QVQLVESGGGLVQAGGSLRLSCAASGFTFIRNGMGWYRQAPGKERELVAAITTSGSGTYYADSVKGRFTISRDNAKNTVYLQMNSLKPEDTAVYYCATDYRYRSYSRGAHDYWGQGTQVTVSS', 'polyreactivity (PSR sort gate)', 'low polyreactivity'),
  ('QVQLVESGGGLVQAGGSLRLSCAASGSTFGRNTMGWYRPAPGKERELVAAITAGDTTTYADSVKGRFTISRDNAKNTDYLQMKSLKREDTAVYYCAVDPVRGRDYSWMDYWGQGSQVTVSS', 'polyreactivity (PSR sort gate)', 'low polyreactivity'),
  ('QVQLVESGGALVQAGGSLRLSCAASGSIFVSYAKGWSRPAPGKERELLATITTSTGSTYADSVKGRFTISRDNAKNTVYLQMNSLKPEDTAVYYCAARYQPWLKYDFDSWGQGTQVTVSS', 'polyreactivity (PSR sort gate)', 'low polyreactivity'),
  ('QVQLVESGGGLVQAGGSLRLSCAASGSTFYYNTMGWYRQAPGKERELVAAISWRGGSTYYADSVKGRYTISRDNAKNTVYLQMNSLKPEDTAVYYCAALTYYGSDYWGQGTQVTVSS', 'polyreactivity (PSR sort gate)', 'high polyreactivity'),
  ('QVQLVESGGGLVQAGGSLRLSCAASGRIFSVYTMGLYRQAPGKERELGAAISSGGRTYYADSVKGRFTISRDNAKNTVYLQMNSLKPEDTAVYYCAAGSHYAFYYWGQGTQVTVSS', 'polyreactivity (PSR sort gate)', 'high polyreactivity'),
  ('QVQLVESGGGLVQAGGSLRLSCAASGRIFWFNSMGWYRQAPGKERELVAAIDSVGSTYYADSVKGRFTISRDNAKNTVYLQMNSLKPEDTAVYYCAKSTRPVSGVPDGPLYEYWGQGTQVTVSS', 'polyreactivity (PSR sort gate)', 'low polyreactivity');
